Would you kindly list cytotoxicity at 70.5 h for each of these molecules?
- assay_text: Human HepG2 cell viability assay in 384 well format
- Format: toxicity, cell-based
- Design: dose 125 nL, time 70.5 hour; concentration not given beside the values
- condition_set: HepG2 cells, read-out: Inhibition
A number alone suffices; assume %.

## Task So what's the measured cytotoxicity at 70.5 h for this one? COCc1nnc(-c2cccc(C(=O)OC(C)C)c2)o1
## Result -8.2

## Task So what's the measured cytotoxicity at 70.5 h for this one? COc1ccccc1CCNC(=O)CNC1CCc2nc(C)nn2C1 (centres undefined)
## Result -0.271

## Task So what's the measured cytotoxicity at 70.5 h for this one? CCn1cc(CNc2ccc3nccnc3c2)cn1
## Result 7.17

## Task So what's the measured cytotoxicity at 70.5 h for this one? CC(C)NC(=O)N1CC[C@@H]2CN(Cc3ccccc3)S(=O)(=O)[C@@H]2CC1
## Result 18.6

## Task So what's the measured cytotoxicity at 70.5 h for this one? CN(Cc1ccc([S+](C)[O-])cc1)c1ccc(Cl)cn1 (centres undefined)
## Result 20.8

## Task So what's the measured cytotoxicity at 70.5 h for this one? N#CCSCCCN1CCC(C(=O)N2CCCCCC2)CC1
## Result -5.04

## Task So what's the measured cytotoxicity at 70.5 h for this one? Cn1cc(N2CCC3(CCCN(C(=O)c4ccnn4C)C3)C2=O)cn1 (centres undefined)
## Result -4.7

## Task So what's the measured cytotoxicity at 70.5 h for this one? Clc1ccc(COCC2CCN(Cc3ccccn3)CC2)cc1
## Result -0.416

## Task So what's the measured cytotoxicity at 70.5 h for this one? CN(Cc1nc(N)c2ccccc2n1)CC1CCCN1c1cccnn1 (centres undefined)
## Result -16.6

## Task So what's the measured cytotoxicity at 70.5 h for this one? C[C@@H]1CN2C[C@H](O)CC2CN1Cc1ccc2nccnc2c1 (some centres undefined)
## Result 35.6

## Task So what's the measured cytotoxicity at 70.5 h for this one? Cn1cc(-c2nc(CN3CCN(CCO)CC3)cs2)cn1
## Result 12.2

## Task So what's the measured cytotoxicity at 70.5 h for this one? O=C(CCCc1nc2ccccc2[nH]1)N1CCCC(n2cccn2)C1 (centres undefined)
## Result -1.12

## Task So what's the measured cytotoxicity at 70.5 h for this one? COc1ccc(NC(=O)N2CCC3(CC2)NC(=O)CC3C(=O)O)cc1Cl (centres undefined)
## Result 13.1

## Task So what's the measured cytotoxicity at 70.5 h for this one? CC(C)c1nn(C)c(N(C)C)c1CNC1CCC(O)CC1 (centres undefined)
## Result -6.96

## Task So what's the measured cytotoxicity at 70.5 h for this one? Cc1c(C)n(Cc2ccncc2)c2nc3c(c(N)c12)CCCCC3
## Result 25.4

## Task So what's the measured cytotoxicity at 70.5 h for this one? O=C1CCCN1CCc1noc(-c2ccc(Cl)cc2)n1
## Result -10.6

## Task So what's the measured cytotoxicity at 70.5 h for this one? Cc1ccc(CN2C[C@H]3C[C@H](C(=O)NCc4cccnc4)[C@@H](C2)O3)o1
## Result -8.69

## Task So what's the measured cytotoxicity at 70.5 h for this one? COCC(NC(=O)c1ccoc1)c1ccc(C)o1 (centres undefined)
## Result -2.43

## Task So what's the measured cytotoxicity at 70.5 h for this one? COC(=O)C(O)C1CCN(CCc2ccncc2)CC1 (centres undefined)
## Result 9.73

## Task So what's the measured cytotoxicity at 70.5 h for this one? O=C(COc1coc(CN2CCCCC2)cc1=O)Nc1ccc(Cl)cc1
## Result -3.76

## Task So what's the measured cytotoxicity at 70.5 h for this one? CCCc1cc(=O)[nH]c(-c2cccc(CN3CCN4CCCC4C3)c2)n1 (centres undefined)
## Result -6.97

## Task So what's the measured cytotoxicity at 70.5 h for this one? O=C(Cc1ccco1)N1CCC2(CCOCC2COCC2CC2)CC1 (centres undefined)
## Result -4.14

## Task So what's the measured cytotoxicity at 70.5 h for this one? COc1ccccc1N1CCN(CC[C@H](O)c2ccccc2)CC1=O
## Result -12

## Task So what's the measured cytotoxicity at 70.5 h for this one? Cc1nc(CN2C(=O)C[C@H]3[C@H]2CCN3C2CCOCC2)cs1
## Result -2.79
